Catalogue of compounds with associated GI50
Biological target: Ba/F3 cells expressing BCR-ABL T315I (Homo sapiens, UniProt P00519, T315I, cells depend on it)
Test: MTT cell viability assay, Experiment 3
Format: cell-based, murine
Details: Mean ± S.E.M, two independent experiments, read-out: IC50 cell viability, Ba/F3 cells T315I BCR-ABL
Respond numerically; units are nM and should not be typed.

// worked examples, GI50 included
[[record]]
compound = "Cc1ccc(C(=O)Nc2ccc3c(c2)C(F)(F)C[C@@H]3N2CCN(C)CC2)cc1C#Cc1cnc(NC2CC2)nc1 [37-(S)]"
reported_endpoint = "GI50"
reported = 12.4

[[record]]
compound = "Cc1ccc(C(=O)Nc2ccc3c(c2)C(F)(F)CC3N2CCN(C)CC2)cc1C#Cc1cnc2cccnn12 (racemic)"
reported_endpoint = "GI50"
reported = 11

[[record]]
compound = "Cc1ccc(C(=O)Nc2ccc3c(c2)C(F)(F)CC3N2CCN(C)CC2)cc1C#Cc1cnc(NC2CC2)nc1 (racemic)"
reported_endpoint = "GI50"
reported = 40

[[record]]
compound = "CN1CCN([C@H]2CC(F)(F)c3cc(NC(=O)c4ccc(Cl)c(C#Cc5cnc6cccnn56)c4)ccc32)CC1 (single isomer, unassigned) [Compound 38-(S)]"
reported_endpoint = "GI50"
reported = 3.8

[[record]]
compound = "Cc1ccc(C(=O)Nc2ccc3c(c2)C(F)(F)C[C@@H]3N2CCN(C)CC2)cc1C#Cc1cnc2cccnn12 [Compound 36-(S)]"
reported_endpoint = "GI50"
reported = 4.7


Now look at this entry.
Q) What does the data say about its GI50? Entry: CN1CCN(C2CC(F)(F)c3cc(NC(=O)c4ccc(Cl)c(C#Cc5cnc6cccnn56)c4)ccc32)CC1 (racemic)
A) 10.1
